B1: MIA2 (parent)
chain: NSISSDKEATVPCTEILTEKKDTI

Variants of: B1
Test: protein stability index of a GFP-peptide fusion (GPS, HEK-293T) (PSI 1-6); higher = more stable;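 also: lentivirally expressed fusions sorted by FACS into six bins by GFP to DsRed ratio, PSI derived from sequencing read proportions per bin multiplied by bin number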
Settings: c terminus: a fixed tail appended
test_readout: protein stability index

| mutation_key | test_readout | reported_result |
| --- | --- | --- |
| L17G | protein stability index | 5.64 |
| E15A | protein stability index | 5.24 |
| E19Q | protein stability index | 5.22 |
| A9T | protein stability index | 5.38 |
| P12N | protein stability index | 5.51 |
| V11I | protein stability index | 5.28 |
| T23R | protein stability index | 5.13 |
| T10N | protein stability index | 5.6 |
| A9D | protein stability index | 5.11 |
| T10A | protein stability index | 5.65 |
| D22V | protein stability index | 4.31 |
